Reported IC50 by item:
- experimentalTarget: PI3Kγ (Homo sapiens)
- Construct: purchased Merck Millipore
- Sequence (P48736 whole entry): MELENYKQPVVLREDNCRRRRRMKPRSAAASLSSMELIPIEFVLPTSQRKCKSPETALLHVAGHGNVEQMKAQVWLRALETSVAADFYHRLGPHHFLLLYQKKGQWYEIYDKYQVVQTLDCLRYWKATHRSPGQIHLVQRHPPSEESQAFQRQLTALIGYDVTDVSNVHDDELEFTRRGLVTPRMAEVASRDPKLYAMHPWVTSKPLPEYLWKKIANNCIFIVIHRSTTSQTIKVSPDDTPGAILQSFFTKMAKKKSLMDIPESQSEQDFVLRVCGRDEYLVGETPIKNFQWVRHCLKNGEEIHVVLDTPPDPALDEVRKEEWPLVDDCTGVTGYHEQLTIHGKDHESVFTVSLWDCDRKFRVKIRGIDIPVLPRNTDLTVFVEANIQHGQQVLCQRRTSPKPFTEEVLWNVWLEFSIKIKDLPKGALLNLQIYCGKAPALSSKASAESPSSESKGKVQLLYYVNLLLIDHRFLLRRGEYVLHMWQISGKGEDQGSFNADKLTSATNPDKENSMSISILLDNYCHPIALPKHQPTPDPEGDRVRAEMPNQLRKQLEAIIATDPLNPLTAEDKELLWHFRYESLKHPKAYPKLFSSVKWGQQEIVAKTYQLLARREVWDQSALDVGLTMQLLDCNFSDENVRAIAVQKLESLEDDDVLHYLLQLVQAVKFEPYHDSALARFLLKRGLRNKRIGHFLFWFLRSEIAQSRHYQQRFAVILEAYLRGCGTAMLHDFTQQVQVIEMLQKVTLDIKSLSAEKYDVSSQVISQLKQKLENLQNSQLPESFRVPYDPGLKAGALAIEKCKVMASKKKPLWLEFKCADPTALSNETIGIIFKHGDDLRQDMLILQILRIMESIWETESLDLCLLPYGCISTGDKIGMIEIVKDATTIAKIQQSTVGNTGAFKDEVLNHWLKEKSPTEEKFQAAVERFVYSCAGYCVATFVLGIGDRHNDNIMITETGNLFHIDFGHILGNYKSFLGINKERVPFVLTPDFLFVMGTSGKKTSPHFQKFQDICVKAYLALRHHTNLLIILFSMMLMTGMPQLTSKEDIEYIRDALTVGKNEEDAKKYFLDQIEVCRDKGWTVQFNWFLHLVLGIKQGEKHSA
- assayOverview: PI3K kinases inhibition in vitro (ADP-Glo), PI3Kγ
- Format: biochemical
- assayContext: averaged; recombinant kinase, 30° C., 1 h, PIP2 50 μM; read-out: PI3Kγ IC50

{"smilesRecord": "O=C(C1CC1)N1CCN(Cc2cc3nc(-c4cccc5[nH]ccc45)cc(N4CCOCC4)n3n2)CC1", "IC50": "100 to 1000 nM"}
{"smilesRecord": "CC(C)(C)N1CCN(Cc2cc3nc(-c4c(F)ccc5[nH]ccc45)cc(N4CCOCC4)n3n2)CC1", "IC50": "> 1000 nM"}
{"smilesRecord": "CC(C)(C)N1CCN(C(=O)c2cc3nc(-c4cccc5[nH]ccc45)cc(N4CCOCC4)n3n2)CC1", "IC50": "> 1000 nM"}
{"smilesRecord": "Cc1c(CN2CCC(C(C)(C)O)CC2)nn2c(N3CCOCC3)cc(-n3c(C(F)F)nc4ccccc43)nc12", "IC50": "> 1000 nM"}
{"smilesRecord": "FC(F)c1nc2ccccc2n1-c1cc(N2CCOCC2)n2nc(CN3CC(N4CCOCC4)C3)cc2n1", "IC50": "> 1000 nM"}
